Data provenance: ChEMBL document CHEMBL3885861

Species on record: Rattus norvegicus
Experiment: Open TG-GATES - Regimen: Single
Assay type: toxicity, organism-based, Sprague-Dawley
Set-up: regimen Single, gender Male, age 6 weeks
Settings: in vivo, po, 0 mg/kg, 24 h, tissue Blood, route gavage, dose level Control
Measurement name: Lym (%)
Give just the numeric value; % need not be written.

CN(C)CCC=C1c2ccccc2COc2ccccc21 [DOXEPIN]    76.4
OCCOCCN1CCN(C(c2ccccc2)c2ccc(Cl)cc2)CC1 (stereo unspecified) [HYDROXYZINE]    80.2
CCC1(c2ccccc2)C(=O)NC(=O)NC1=O [PHENOBARBITAL]    77.6
CN(C)C(=N)N=C(N)N [METFORMIN]    77
CC1=C(CC(=O)O)c2cc(F)ccc2/C1=C\c1ccc([S+](C)[O-])cc1 (stereo unspecified)    77.6

Q: Fill in reported Lym for this entry: O=NN(CCCl)C(=O)NC1CCCCC1 [LOMUSTINE]
A: 80.4

Q: Fill in reported Lym for this entry: O=NN1CCOCC1 [N-NITROSOMORPHOLINE]
A: 80

Q: Fill in reported Lym for this entry: CCc1oc2ccccc2c1C(=O)c1cc(Br)c(O)c(Br)c1 [BENZBROMARONE]
A: 75

Q: Fill in reported Lym for this entry: CC(C)N(CCC(C(N)=O)(c1ccccc1)c1ccccn1)C(C)C (stereo unspecified) [DISOPYRAMIDE]
A: 82.6

Q: Fill in reported Lym for this entry: CC[C@H]1[C@@H]2C[C@H]3[C@@H]4N(C)c5ccccc5[C@]45C[C@@H]([C@@H]2[C@H]5O)N3[C@@H]1O [AJMALINE]
A: 75

Q: Fill in reported Lym for this entry: ClC(Cl)(Cl)Cl [CARBON TETRACHLORIDE]
A: 82

###

Documented RALB across a set of compounds
Organism: Rattus norvegicus
Assay: Open TG-GATES - Regimen: Daily Repeat
Type: toxicity, organism-based, Sprague-Dawley
Design: regimen Daily Repeat, gender Male, age 6 weeks
Settings: in vivo, po, 0 mg/kg, […], tissue Plasma, route gavage, dose level Control, time 28 day
Give just the numeric value; g/dL need not be written.

CC[C@H]1[C@@H]2C[C@H]3[C@@H]4N(C)c5ccccc5[C@]45C[C@@H]([C@@H]2[C@H]5O)N3[C@@H]1O [AJMALINE]    4
CCC1(c2ccccc2)C(=O)NC(=O)NC1=O [PHENOBARBITAL]    3.9
CC(C)N(CCC(C(N)=O)(c1ccccc1)c1ccccn1)C(C)C (stereo not given) [DISOPYRAMIDE]    3.1
CCCCc1oc2ccccc2c1C(=O)c1cc(I)c(OCCN(CC)CC)c(I)c1 [AMIODARONE]    3.4

Q: Fill in reported RALB for this entry: CN(C)CCC=C1c2ccccc2COc2ccccc21 [DOXEPIN]
A: 2.9

###

Organism: Rattus norvegicus
Assay: Open TG-GATES - Regimen: Daily Repeat
Format: toxicity, organism-based, Sprague-Dawley
Design: regimen Daily Repeat, gender Male, age 6 weeks
Conditions: in vivo, po, 0 mg/kg, […], tissue Plasma, route gavage, dose level Control, time 14 day
Measurement name: TC (mg/dL)
Give just the numeric value; mg/dL need not be written.

Consider the worked cases shown below.
CC1=C(CC(=O)O)c2cc(F)ccc2/C1=C\c1ccc([S+](C)[O-])cc1 (centres undefined)    73.2
OCCOCCN1CCN(C(c2ccccc2)c2ccc(Cl)cc2)CC1 (centres undefined) [HYDROXYZINE]    73
CC(C)N(CCC(C(N)=O)(c1ccccc1)c1ccccn1)C(C)C (centres undefined) [DISOPYRAMIDE]    71.2

Next compound, please.
Q: Fill in reported TC for this entry: O=NN(CCCl)C(=O)NC1CCCCC1 [LOMUSTINE]
A: 81

###

Organism: Rattus norvegicus
Assay: Open TG-GATES - Regimen: Daily Repeat
Type: toxicity, organism-based, Sprague-Dawley
Set-up: regimen Daily Repeat, gender Male, age 6 weeks
Settings: in vivo, po, 0 mg/kg, […], tissue Blood, route gavage, dose level Control, time 28 day
Measurement name: Neu (%)
Give just the numeric value; % need not be written.

Consider the worked cases shown below.
OCCOCCN1CCN(C(c2ccccc2)c2ccc(Cl)cc2)CC1 (stereo not given) [HYDROXYZINE]    16.4
CN(C)CCC=C1c2ccccc2COc2ccccc21 [DOXEPIN]    20.8
CCc1oc2ccccc2c1C(=O)c1cc(Br)c(O)c(Br)c1    11.4

Q: Fill in reported Neu for this entry: CC1=C(CC(=O)O)c2cc(F)ccc2/C1=C\c1ccc([S+](C)[O-])cc1 (stereo not given)
A: 16.2

Q: Fill in reported Neu for this entry: CCCCc1oc2ccccc2c1C(=O)c1cc(I)c(OCCN(CC)CC)c(I)c1
A: 17.2

###

Organism: Rattus norvegicus
Test: Open TG-GATES - Regimen: Single
Format: toxicity, organism-based, Sprague-Dawley
Set-up: regimen Single, gender Male, age 6 weeks
Conditions: in vivo, po, 100 mg/kg, 24 h, tissue Plasma, route gavage, dose level Low
Measurement name: K (meq/L)
Give just the numeric value; meq/L need not be written.

Consider the worked cases shown below.
CN(C)CCC=C1c2ccccc2COc2ccccc21 [DOXEPIN]    4
O=NN1CCOCC1 [N-NITROSOMORPHOLINE]    4.3
CCC1(c2ccccc2)C(=O)NC(=O)NC1=O [PHENOBARBITAL]    3.8

Next compound, please.
Q: Fill in reported K for this entry: CN(C)C(=N)N=C(N)N [METFORMIN]
A: 3.9

###

Species on record: Rattus norvegicus
Test: Open TG-GATES - Regimen: Daily Repeat
Format: toxicity, organism-based, Sprague-Dawley
Design: regimen Daily Repeat, gender Male, age 6 weeks
Conditions: in vivo, po, 0 mg/kg, […], tissue Blood, route gavage, dose level Control, time 7 day
Measurement name: PT (s)
Give just the numeric value; s need not be written.

Consider the worked cases shown below.
CCC1(c2ccccc2)C(=O)NC(=O)NC1=O [PHENOBARBITAL]    11.9
CC[C@H]1[C@@H]2C[C@H]3[C@@H]4N(C)c5ccccc5[C@]45C[C@@H]([C@@H]2[C@H]5O)N3[C@@H]1O [AJMALINE]    11.2
CCc1oc2ccccc2c1C(=O)c1cc(Br)c(O)c(Br)c1 [BENZBROMARONE]    11.9
O=NN(CCCl)C(=O)NC1CCCCC1 [LOMUSTINE]    11.4

Q: Fill in reported PT for this entry: CC(C)N(CCC(C(N)=O)(c1ccccc1)c1ccccn1)C(C)C (stereo not given) [DISOPYRAMIDE]
A: 16.2

Q: Fill in reported PT for this entry: OCCOCCN1CCN(C(c2ccccc2)c2ccc(Cl)cc2)CC1 (stereo not given) [HYDROXYZINE]
A: 15.4

###

Species: Rattus norvegicus
Assay: Open TG-GATES - Regimen: Single
Format: toxicity, organism-based, Sprague-Dawley
Set-up: regimen Single, gender Male, age 6 weeks
Conditions: in vivo, po, 0 mg/kg, 9 h, tissue Plasma, route gavage, dose level Control
Documented PL across a set of compounds
Give just the numeric value; mg/dL need not be written.

Q: Fill in reported PL for this entry: OCCOCCN1CCN(C(c2ccccc2)c2ccc(Cl)cc2)CC1 (stereo not given) [HYDROXYZINE]
A: 129.4

Q: Fill in reported PL for this entry: ClC(Cl)(Cl)Cl [CARBON TETRACHLORIDE]
A: 129.8

Q: Fill in reported PL for this entry: CN(C)CCC=C1c2ccccc2COc2ccccc21 [DOXEPIN]
A: 125.8

Q: Fill in reported PL for this entry: CCC1(c2ccccc2)C(=O)NC(=O)NC1=O
A: 129.8

Q: Fill in reported PL for this entry: CC[C@H]1[C@@H]2C[C@H]3[C@@H]4N(C)c5ccccc5[C@]45C[C@@H]([C@@H]2[C@H]5O)N3[C@@H]1O
A: 126.4

###

Organism: Rattus norvegicus
Assay: Open TG-GATES - Regimen: Daily Repeat
Type: toxicity, organism-based, Sprague-Dawley
Parameters: regimen Daily Repeat, gender Male, age 6 weeks
Details: in vivo, po, 0 mg/kg, […], tissue Plasma, route gavage, dose level Control, time 7 day
Label rule met when ALP is at or above 1000 IU/L; anything below gets rule not met.

Reference set, count: 5
CC[C@H]1[C@@H]2C[C@H]3[C@@H]4N(C)c5ccccc5[C@]45C[C@@H]([C@@H]2[C@H]5O)N3[C@@H]1O    rule met
CCc1oc2ccccc2c1C(=O)c1cc(Br)c(O)c(Br)c1    rule not met
CN(C)CCC=C1c2ccccc2COc2ccccc21 [DOXEPIN]    rule met
CN(C)C(=N)N=C(N)N    rule met
CC(C)N(CCC(C(N)=O)(c1ccccc1)c1ccccn1)C(C)C (stereo unspecified) [DISOPYRAMIDE]    rule met

Q: Is ALP for CC1=C(CC(=O)O)c2cc(F)ccc2/C1=C\c1ccc([S+](C)[O-])cc1 (stereo unspecified) at or above 1000 IU/L?
A: rule met

Q: Is ALP for O=NN(CCCl)C(=O)NC1CCCCC1 at or above 1000 IU/L?
A: rule not met

Q: Is ALP for OCCOCCN1CCN(C(c2ccccc2)c2ccc(Cl)cc2)CC1 (stereo unspecified) [HYDROXYZINE] at or above 1000 IU/L?
A: rule met

Q: Is ALP for ClC(Cl)(Cl)Cl [CARBON TETRACHLORIDE] at or above 1000 IU/L?
A: rule not met

Q: Is ALP for CCC1(c2ccccc2)C(=O)NC(=O)NC1=O at or above 1000 IU/L?
A: rule met

Q: Is ALP for CCCCc1oc2ccccc2c1C(=O)c1cc(I)c(OCCN(CC)CC)c(I)c1 at or above 1000 IU/L?
A: rule not met
